Parameter: normalized growth. Scope: all listed entries.
# Assay details: chemical genetic growth profiling, strain panel (AID 1159580);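 also: tested at 20 µM; growth read once vehicle control cultures reached saturation at 30 °C; 1 = growth at the plate median or of vehicle wells; lower values mean less growth of the strain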
# Test settings: S. cerevisiae deletion strains, growth OD, locus YMR223W, strain ubp8, active compounds read low
Hit rate of the full screen: of about 5,500 compounds, about 2,000 (36%) were called active. Inconclusive results (about 18%) are left out. The list shows a part of the results.
Just the number.

Task: Would you kindly share the measured normalized growth for "O=C(O)c1nc2cc(Cl)c(Cl)cc2[nH]c1=O" ?
Result: 0.996

Task: Would you kindly share the measured normalized growth for "COc1c(O)cc2c(-c3ccccc3)cc(=O)oc2c1OC" ?
Result: 0.978

Task: Would you kindly share the measured normalized growth for "COc1cc2c3cc1Oc1cc(ccc1O)C[C@@H]1c4c(cc(OC)c(O)c4Oc4ccc(cc4)C[C@@H]3N(C)CC2)CC[N+]1(C)C" ?
Result: 0.994

Task: Would you kindly share the measured normalized growth for "O=C1CCc2cc(OCCCCc3nnnn3C3CCCCC3)ccc2N1" ?
Result: 0.991

Task: Would you kindly share the measured normalized growth for "COc1cccc(-c2cc(=O)c3ccc(OC)cc3o2)c1" ?
Result: 1

Task: Would you kindly share the measured normalized growth for "NCCc1ccc(O)c(O)c1" ?
Result: 0.972

Task: Would you kindly share the measured normalized growth for CN1CCOC(c2ccccc2)c2ccccc2C1 (configuration not stated) ?
Result: 1.01

Task: Would you kindly share the measured normalized growth for "COc1cc([C@@H]2c3cc4c(cc3[C@H](OC(C)=O)[C@H]3COC(=O)[C@H]23)OCO4)cc(OC)c1OC" ?
Result: 0.974

Task: Would you kindly share the measured normalized growth for "CC(=O)Oc1cc(OC(C)=O)c2c(=O)c(-c3ccccc3)coc2c1" ?
Result: 0.992

Task: Would you kindly share the measured normalized growth for CCC(/C=C/[C@@H](C)[C@H]1CCC2C3CC=C4C[C@@H](O)CC[C@]4(C)C3CC[C@@]21C)C(C)C (some centres not stated) ?
Result: 0.974

Task: Would you kindly share the measured normalized growth for CCC1C2CC3C4N(C)c5ccccc5C45CC(C2C5OC(C)=O)N3C1OC(C)=O (configuration not stated) ?
Result: 1.01

Task: Would you kindly share the measured normalized growth for CC1NC(=O)NC1=O (configuration not stated) ?
Result: 1.01

Task: Would you kindly share the measured normalized growth for "Cc1coc2ccccc2c1=O" ?
Result: 1.02

Task: Would you kindly share the measured normalized growth for CCN(CCCCOC(=O)c1ccc(OC)c(OC)c1)C(C)Cc1ccc(OC)cc1 (configuration not stated) ?
Result: 0.971

Task: Would you kindly share the measured normalized growth for COC(=O)C1=C(C)NC(C)=C(C(=O)OCCN(C)Cc2ccccc2)C1c1cccc([N+](=O)[O-])c1 (configuration not stated) ?
Result: 0.978

Task: Would you kindly share the measured normalized growth for CC(=O)CC(c1ccccc1)c1c(O)c2ccccc2oc1=O (configuration not stated) ?
Result: 1.01

----------
# Assay details: chemical genetic growth profiling, strain panel (AID 1159580);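 also: tested at 20 µM; growth read once vehicle control cultures reached saturation at 30 °C; 1 = growth at the plate median or of vehicle wells; lower values mean less growth of the strain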
# Test settings: S. cerevisiae deletion strains, growth OD, locus YOR069W, strain VPS5
Out of some 5,500 compounds screened, about 2,000 (36%) were called active. Another 18% or so got no clear call; they are omitted. Cut-off read from the data, not from the text of the source: active = normalized growth mostly below about 0.91 (no sharp cut-off); inconclusive = no clear call, values can overlap the other calls; inactive = mostly above about 0.92. Some of the results follow.
Classes to choose from: active, inactive

# Molecule, Category
data = [
    ("COc1cccc(-c2cc(=O)c3ccc(OC)cc3o2)c1", "inactive"),
    ("COC(=O)C1=C(C)NC(C)=C(C(=O)OC)C1c1ccccc1[N+](=O)[O-]", "active"),
    ("COc1cc2c3cc1Oc1cc(ccc1O)C[C@@H]1c4c(cc(OC)c(O)c4Oc4ccc(cc4)C[C@@H]3N(C)CC2)CC[N+]1(C)C", "inactive"),
    ("CC(=O)CC(c1ccccc1)c1c(O)c2ccccc2oc1=O (centres undefined)", "inactive"),
    ("CC(C)(Oc1ccc(Cl)cc1)C(=O)O", "inactive"),
]

Alright, here's another molecule for you.
Task: State the result this test recorded for "Nc1ccc(C(=O)Oc2ccccc2)c(O)c1" .
Result: inactive
